- procedure text: Ratio of apparent permeability from apical to basolateral side in MDCK cells to apparent permeability from apical to basolateral side in human Caco2 cells
- Type: ADME, cell-based
- measurement parameters: caco-2
attribute measured: Ratio

The cases that follow already have their Ratio on record.
mol smiles: CCOC(=O)c1ccc(/C=C2\CNC/C(=C\c3ccc(C(=O)OCC)cc3)C2=O)cc1
Ratio: 0.96
--
mol smiles: CCOP(=O)(OCC)N1C/C(=C\c2ccc(OC)c(OC)c2)C(=O)/C(=C/c2ccc(OC)c(OC)c2)C1
Ratio: 1.14
--
mol smiles: O=C1/C(=C/c2cccc(O)c2)CNC/C1=C\c1cccc(O)c1
Ratio: 1.42
--
mol smiles: O=C1/C(=C/c2ccccc2F)CNC/C1=C\c1ccccc1F
Ratio: 1
--
mol smiles: COc1cccc(/C=C2\CNC/C(=C\c3cccc(OC)c3OC)C2=O)c1OC
Ratio: 0.63
--
mol smiles: CCOP(=O)(OCC)N1C/C(=C\c2cc(OC)c(OC)c(OC)c2)C(=O)/C(=C/c2cc(OC)c(OC)c(OC)c2)C1
Ratio: 3.68
--
mol smiles: COc1ccc(/C=C2\CNC/C(=C\c3ccc(OC)c(OC)c3)C2=O)cc1OC
Ratio: 1.54

1. O=C(/C=C/c1ccccc1)c1ccccc1
2. COc1ccccc1/C=C1\CNC/C(=C\c2ccccc2OC)C1=O
3. CN(C)c1ccc(/C=C/C(=O)/C=C/c2ccc(N(C)C)cc2)cc1
List these items ordered by Ratio, big to small. Quick reminder: the answer is the labels in the order asked.
3, 1, 2

Source listed as ChEMBL document CHEMBL3351337.
